meta.source: patent US20190248902A1

Molecular target: T1, recombinant, soluble human ASGR-1 (human, UniProt P07306 62-291)
T1 construct: biotinylated in the binning assay; also called soluble huASGR-1; Soluble ASGR-1 (Amgen)
T1 sequence: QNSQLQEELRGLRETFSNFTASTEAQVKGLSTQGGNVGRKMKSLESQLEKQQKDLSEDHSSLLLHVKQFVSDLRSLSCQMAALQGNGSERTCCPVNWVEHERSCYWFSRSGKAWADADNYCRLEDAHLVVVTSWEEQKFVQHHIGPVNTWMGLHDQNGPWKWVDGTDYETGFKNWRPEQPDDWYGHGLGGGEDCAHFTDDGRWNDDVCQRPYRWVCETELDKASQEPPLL
Assay: Octet BLI dissociation, pH 5.6 plus calcium
experimental.endpoint: % Change Compared to pH 7.4 + Calcium (%)
State the answer as a number, implicitly in %.

Ask: Sample 173C11 (antibody, V domains shown, hybridoma mAb) VH: QVQLVESGGGVVQPGRSLRLSCAASGFTFSSYGIHWVRQAPGKGLEWVALIFYDGSNKYYADSVKGRFTISRDNSKNTLYLHMSSLRAEDTAVYYCARRYSSSWSGGMDVWGQGTTVTVSS VL: DIVMTQTPLSLSVTPGQPASISCKSSQSLLHSEGKTYLYWYLQKPGQPPQLLIYEVSHRFSGVPDRFSGSGSGTDFTLKISRVEAEDVGVYYCMQSIQLLTFGGGTKVEIK — what was its % Change Compared to pH 7.4 + Calcium?
Reply: 0

Ask: Can you look up the measured % Change Compared to pH 7.4 + Calcium of 7F4 (antibody, V domains shown, hybridoma mAb) VH: QLQLQESGPGLVKPSETLSLTCTVSGGSISRSSYYWGWIRQPPGKGLEWIGNIYYSGATYYNPSLKSRVTISVDTSTNQFSLKLSSVTAADTAVYYCARHSGSWSLDYWGQGTLVTVSS VL: DIQMTQSPSSLSASVGDRVTITCRTSQGIRNDLGWYQQKPGKAPKRLIYAASNLQSGVPSRFSGSGSGTEFTLTISSLQPEDFATYYCLQHSAYPLTFGGGTKVEIK for me?
Reply: 6
